tested on: H3255; test: relative viability (nuclei count vs DMSO), 5 days (fraction); higher = more cells survive; conditions: first compound 20 µM
Binary label based on relative viability with cut-off 0.6: below gives True, not below gives False.

Below are worked cases with known answers.
• COCC1(CO)C(=O)C2CCN1CC2 (stereo not given) [PRIMA-1MET] + CC(C)C[C@H](NC(=O)[C@H](Cc1ccccc1)NC(=O)c1cnccn1)B(O)O [Bortezomib] (partner 0.002 µM) = False
• COCC1(CO)C(=O)C2CCN1CC2 (stereo not given) [PRIMA-1MET] + Cc1cc(Nc2cc(N3CCN(C)CC3)nc(Sc3ccc(NC(=O)C4CC4)cc3)n2)n[nH]1 [Tozasertib] (partner 0.1 µM) = True
• COCC1(CO)C(=O)C2CCN1CC2 (stereo not given) [PRIMA-1MET] + CC(=O)c1c(C)c2cnc(Nc3ccc(N4CCNCC4)cn3)nc2n(C2CCCC2)c1=O [Palbociclib] (partner 0.5 µM) = True
• COCC1(CO)C(=O)C2CCN1CC2 (stereo not given) [PRIMA-1MET] + CC(=O)Nc1cccc(-n2c(=O)n(C3CC3)c(=O)c3c(Nc4ccc(I)cc4F)n(C)c(=O)c(C)c32)c1 [Trametinib] (partner 0.02 µM) = True

Moving on to the next compound.
Find out if reported relative viability for COCC1(CO)C(=O)C2CCN1CC2 (stereo not given) [PRIMA-1MET] + Nc1ncn([C@H]2C[C@H](O)[C@@H](CO)O2)c(=O)n1 [Decitabine] (partner 2 µM) is less than 0.6
True

----------
system: NCI-H1437; assay: relative viability (nuclei count vs DMSO), 5 days (fraction); higher = more cells survive; details: first compound 0.2 µM
relative viability strictly less than 0.6 = Yes. Otherwise No.

- COCC1(CO)C(=O)C2CCN1CC2 (configuration not stated) [PRIMA-1MET] + CCNC(=O)c1noc(-c2cc(C(C)C)c(O)cc2O)c1-c1ccc(CN2CCOCC2)cc1 [Luminespib] (partner 0.01 µM): No

Strictly below 0.6: is that where relative viability of COCC1(CO)C(=O)C2CCN1CC2 (configuration not stated) [PRIMA-1MET] + Nc1nc2[nH]cc(CCc3ccc(C(=O)N[C@@H](CCC(=O)O)C(=O)O)cc3)c2c(=O)[nH]1 [Pemetrexed] (partner 0.2 µM) sits?
Yes

Strictly below 0.6 in relative viability? COCC1(CO)C(=O)C2CCN1CC2 (configuration not stated) [PRIMA-1MET] + CC(=O)Nc1cccc(-n2c(=O)n(C3CC3)c(=O)c3c(Nc4ccc(I)cc4F)n(C)c(=O)c(C)c32)c1 [Trametinib] (partner 0.02 µM)
No

# check: relative viability < 0.6 for COCC1(CO)C(=O)C2CCN1CC2 (configuration not stated) [PRIMA-1MET] + CC1(C)CCC(c2ccc(Cl)cc2)=C(CN2CCN(c3ccc(C(=O)NS(=O)(=O)c4ccc(N[C@H](CCN5CCOCC5)CSc5ccccc5)c(S(=O)(=O)C(F)(F)F)c4)cc3)CC2)C1 [Navitoclax] (partner 0.5 µM)
No

Input COCC1(CO)C(=O)C2CCN1CC2 (configuration not stated) [PRIMA-1MET] + CS(=O)(=O)CCNCc1ccc(-c2ccc3ncnc(Nc4ccc(OCc5cccc(F)c5)c(Cl)c4)c3c2)o1 [Lapatinib] (partner 2 µM) ; condition: relative viability strictly below 0.6. Does it hold?
No

Answer whether the compound COCC1(CO)C(=O)C2CCN1CC2 (configuration not stated) [PRIMA-1MET] + N=C(N)NC(=N)NCCc1ccccc1 [Phenformin] (partner 250 µM) has relative viability strictly less than 0.6
Yes

// provenance: the supplement of paper PMC10307832
